# Measured target: human ether-à-go-go-related gene (hERG) potassium channel (human);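 also: peak tail current of the secondary pulse compared with the same well before compound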
# Assay notes: primary screen, population patch clamp on CHO cells stably expressing hERG; higher = less effect of the substance
The campaign covered roughly 310,000 compounds. About 14,000 (4.5%) showed an effect of 50% or more. Effects have a minus sign here. Shown is part of a subset that was picked to be rich in strong results.
// reported hERG current change (%, negative = inhibition) at 10uM per item
Supply the numeric figure in %, leaving out any unit text.

Some entries whose results are on file:
Identify hERG current change (%, negative = inhibition) at 10uM associated with the molecule `CC(C)(/C=N/O)N(O)C=C1C=CC(=O)C=C1`
5.81

Identify hERG current change (%, negative = inhibition) at 10uM associated with the molecule `O=S(=O)(O)c1ccc(N=NNc2ccc(Br)cc2)cc1`
30.7

Identify hERG current change (%, negative = inhibition) at 10uM associated with the molecule `Cc1sc2nc(C3CC3)nc(N3CCN(C(=O)c4ccc(Cl)cc4)CC3)c2c1C.Cl`
-57.1

Identify hERG current change (%, negative = inhibition) at 10uM associated with the molecule `Cc1cc(C)nc(NC2=NCC(=O)N2CCc2c[nH]c3ccccc23)n1`
-2.13

Identify hERG current change (%, negative = inhibition) at 10uM associated with the molecule `O=C(OCC(=O)c1ccc([N+](=O)[O-])cc1)/C(=C/c1ccc(Cl)cc1)NC(=O)c1ccccc1`
-63.3

Next:
Identify hERG current change (%, negative = inhibition) at 10uM associated with the molecule CSc1ccccc1NC(=O)CN(C)C(C)C(=O)Nc1ccc(C#N)cc1 (stereo not shown)
-63.1

Identify hERG current change (%, negative = inhibition) at 10uM associated with the molecule CCOC(=O)C1(Cc2ccccc2)CCN(CC2CC=CCC2)CC1 (stereo not shown)
-54.9

Identify hERG current change (%, negative = inhibition) at 10uM associated with the molecule `OCCn1ccc(-c2ccccc2OCc2ccc(F)cc2)n1`
4.9

Identify hERG current change (%, negative = inhibition) at 10uM associated with the molecule `Cc1cccc(C)c1NC(=O)CN1C(=O)COc2ccccc21`
10.5

Identify hERG current change (%, negative = inhibition) at 10uM associated with the molecule CC(=O)Nc1ccc(NC(=O)C(C)N(C)CC(=O)Nc2ccccc2Br)cc1 (stereo not shown)
8.29

Identify hERG current change (%, negative = inhibition) at 10uM associated with the molecule `CCOc1cc(N(CC)CC)ccc1/C=C(/C#N)c1nc2ccccc2[nH]1`
0.119

Identify hERG current change (%, negative = inhibition) at 10uM associated with the molecule CCOC(=O)C1(Cc2cccc(OC)c2)CCN(CC2CC=CCC2)CC1 (stereo not shown)
-71.7

Identify hERG current change (%, negative = inhibition) at 10uM associated with the molecule CC(C(=O)Nc1ccc(C#N)cc1)N(C)CC(=O)Nc1cccc(F)c1 (stereo not shown)
-64.7

Identify hERG current change (%, negative = inhibition) at 10uM associated with the molecule CC(C(=O)Nc1ccc(Cl)cc1)N(C)Cc1cccs1 (stereo not shown)
-15

Identify hERG current change (%, negative = inhibition) at 10uM associated with the molecule `O=C(COC(=O)CNC(=O)c1cccc(Br)c1)Nc1nnc(-c2ccccc2)o1`
-0.546

Identify hERG current change (%, negative = inhibition) at 10uM associated with the molecule Cc1ccc(CNC(=S)NC2CCC(C(C)(C)C)CC2)cc1 (stereo not shown)
10.8

Identify hERG current change (%, negative = inhibition) at 10uM associated with the molecule `COc1cccc(N=Nc2c(C)[nH]n(-c3ccccc3)c2=O)c1`
10.1

Identify hERG current change (%, negative = inhibition) at 10uM associated with the molecule `CCN(C(=S)Nc1cccc(C)c1)c1ccccc1`
13.2

Identify hERG current change (%, negative = inhibition) at 10uM associated with the molecule `COc1ccc(CC2(CO)CCN(Cc3nc(C(C)C)cs3)CC2)cc1`
-48.4

---

# Measured target: human ether-à-go-go-related gene (hERG) potassium channel (human, UniProt Q12809);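 also: peak tail current of the secondary pulse compared with the same well before compound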
# Sequence (Q12809 whole entry, looked up): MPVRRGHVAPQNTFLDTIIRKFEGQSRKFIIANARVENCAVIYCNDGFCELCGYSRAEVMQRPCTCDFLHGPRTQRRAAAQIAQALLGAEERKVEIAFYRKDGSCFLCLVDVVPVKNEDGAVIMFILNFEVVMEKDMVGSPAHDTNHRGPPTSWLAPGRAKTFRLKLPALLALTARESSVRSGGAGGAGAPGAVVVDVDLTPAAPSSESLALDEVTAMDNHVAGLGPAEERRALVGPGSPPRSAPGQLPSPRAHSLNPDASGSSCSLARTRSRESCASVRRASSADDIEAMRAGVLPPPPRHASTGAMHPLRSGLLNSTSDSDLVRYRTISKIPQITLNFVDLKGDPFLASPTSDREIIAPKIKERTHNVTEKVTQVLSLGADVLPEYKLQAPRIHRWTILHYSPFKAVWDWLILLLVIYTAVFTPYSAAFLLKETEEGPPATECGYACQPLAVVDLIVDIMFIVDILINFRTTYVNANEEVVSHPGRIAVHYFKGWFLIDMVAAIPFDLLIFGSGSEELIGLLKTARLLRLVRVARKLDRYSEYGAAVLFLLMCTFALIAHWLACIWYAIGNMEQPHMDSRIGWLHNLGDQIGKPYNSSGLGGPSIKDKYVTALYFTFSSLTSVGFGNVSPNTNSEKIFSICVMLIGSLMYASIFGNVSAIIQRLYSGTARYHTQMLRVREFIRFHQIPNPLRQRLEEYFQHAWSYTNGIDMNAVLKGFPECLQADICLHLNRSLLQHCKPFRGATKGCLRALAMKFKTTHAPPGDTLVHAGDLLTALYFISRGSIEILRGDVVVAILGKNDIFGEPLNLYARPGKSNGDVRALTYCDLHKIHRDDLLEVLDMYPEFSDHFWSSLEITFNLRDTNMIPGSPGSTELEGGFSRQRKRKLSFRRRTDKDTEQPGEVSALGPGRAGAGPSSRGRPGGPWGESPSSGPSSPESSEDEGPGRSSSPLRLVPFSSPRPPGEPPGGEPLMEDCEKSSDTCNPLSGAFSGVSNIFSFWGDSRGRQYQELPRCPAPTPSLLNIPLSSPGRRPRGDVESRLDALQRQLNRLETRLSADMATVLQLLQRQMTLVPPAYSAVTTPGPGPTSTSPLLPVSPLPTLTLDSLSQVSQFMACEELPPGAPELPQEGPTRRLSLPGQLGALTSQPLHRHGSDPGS
# Assay notes: primary screen, population patch clamp on CHO cells stably expressing hERG; higher = less effect of the substance
About 14,000 (4.5%) of roughly 310,000 compounds showed an effect of 50% or more. The effect is printed as a negative number. For the sample, strong results were picked, then their nearest neighbours and some compounds at random.
Readout label: hERG current change (%, negative = inhibition) at 10uM

Identify hERG current change (%, negative = inhibition) at 10uM associated with the compound `COc1ccc(NC(=O)CN(c2ccc([N+](=O)[O-])cc2)S(=O)(=O)c2ccccc2)cc1`
-10.3%

Next:
Identify hERG current change (%, negative = inhibition) at 10uM associated with the compound Cc1ccccc1-c1cc(C(=O)NCc2cccs2)nn1CC1CC(c2cccc([N+](=O)[O-])c2)=NO1 (centres unmarked)
4.08%

Identify hERG current change (%, negative = inhibition) at 10uM associated with the compound `CCc1nn(CC(=O)NCCCN2CCN(C)CC2)c(=O)c2cc3sccc3n12`
7.04%

Identify hERG current change (%, negative = inhibition) at 10uM associated with the compound `O=C(COC(=O)c1ccc(F)cc1F)Nc1ccc2[nH]c(=O)[nH]c2c1`
10.3%

Identify hERG current change (%, negative = inhibition) at 10uM associated with the compound `CCNS(=O)(=O)c1ccc(CCC(=O)N2CCN(c3cccc(Cl)c3)CC2)cc1`
-32.7%

Identify hERG current change (%, negative = inhibition) at 10uM associated with the compound `CCc1nn(CC(=O)NCCCN(CC)CC)c(=O)c2cc3sc(C)cc3n12`
7.73%

Identify hERG current change (%, negative = inhibition) at 10uM associated with the compound `Nc1ncn[nH]1`
13.5%

Identify hERG current change (%, negative = inhibition) at 10uM associated with the compound `COc1ccc(CN(Cc2ccccn2)S(=O)(=O)c2ccc(-n3cnnn3)cc2)cc1`
-72.7%

Identify hERG current change (%, negative = inhibition) at 10uM associated with the compound `Clc1cccc(Oc2cnc3ccccc3n2)c1`
-25.8%

Identify hERG current change (%, negative = inhibition) at 10uM associated with the compound `COc1ccc(CN(Cc2ccccn2)S(=O)(=O)c2ccc(-n3cnnn3)c(OC)c2)cc1`
-47.2%

Identify hERG current change (%, negative = inhibition) at 10uM associated with the compound `Cc1ccc2oc(=O)cc(CN3CCN(Cc4ccccc4)CC3)c2c1`
-56.8%

---

# Measured target: human ether-à-go-go-related gene (hERG) potassium channel (human);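 also: peak tail current of the secondary pulse compared with the same well before compound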
# Assay notes: primary screen, population patch clamp on CHO cells stably expressing hERG; higher = less effect of the substance
Among all 310,000 compounds or so, about 14,000 (4.5%) showed an effect of 50% or more. The effect is printed as a negative number. Shown is part of a subset that was picked to be rich in strong results.
Readout label: hERG current change (%, negative = inhibition) at 10uM (%)
Supply the numeric figure in %, leaving out any unit text.

Some entries whose results are on file:
Fill: hERG current change (%, negative = inhibition) at 10uM (human ether-à-go-go-related gene (hERG) potassium channel (human)) for this molecule `O=c1c2ccccc2nc2c3ccccc3c(NCCN3CCOCC3)nn12`
-72.2

Fill: hERG current change (%, negative = inhibition) at 10uM (human ether-à-go-go-related gene (hERG) potassium channel (human)) for this molecule O=C(NCc1ccc2c(c1)OCO2)C1CCCN1C(=O)Nc1cccc(Cl)c1 (centres unmarked)
-25.4

Fill: hERG current change (%, negative = inhibition) at 10uM (human ether-à-go-go-related gene (hERG) potassium channel (human)) for this molecule `Cc1cc(N2CCN(Cc3ccc4c(c3)OCO4)CC2)n2ncnc2n1`
7.64

Fill: hERG current change (%, negative = inhibition) at 10uM (human ether-à-go-go-related gene (hERG) potassium channel (human)) for this molecule `Cc1nc2c(-c3ccc(F)cc3)cnn2c(N)c1-c1ccc(F)cc1`
23.3

Please examine the following record next.
Fill: hERG current change (%, negative = inhibition) at 10uM (human ether-à-go-go-related gene (hERG) potassium channel (human)) for this molecule `COc1ccc(C(=O)/C=C/Nc2ccc([N+](=O)[O-])cc2C)c(OC)c1`
3.07

---

# Measured target: human ether-à-go-go-related gene (hERG) potassium channel (human);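 also: peak tail current of the secondary pulse compared with the same well before compound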
# Assay notes: primary screen, population patch clamp on CHO cells stably expressing hERG; higher = less effect of the substance
Out of some 310,000 compounds screened, about 14,000 (4.5%) showed an effect of 50% or more. Effects have a minus sign here. Only a selection was taken, and strong results are over-represented in it overall.
// reported hERG current change (%, negative = inhibition) at 10uM per item
Supply the numeric figure in %, leaving out any unit text.

Some entries whose results are on file:
Fill: hERG current change (%, negative = inhibition) at 10uM (human ether-à-go-go-related gene (hERG) potassium channel (human)) for this compound COc1cccc(NC(=O)CC(c2ccc(OC(C)C)cc2)c2ccccc2OC)c1 (stereo not drawn)
1.26

Fill: hERG current change (%, negative = inhibition) at 10uM (human ether-à-go-go-related gene (hERG) potassium channel (human)) for this compound `COc1ccc(N2CCN(C(=O)c3cccc(F)c3)CC2)c([N+](=O)[O-])c1`
-73.2

Please examine the following record next.
Fill: hERG current change (%, negative = inhibition) at 10uM (human ether-à-go-go-related gene (hERG) potassium channel (human)) for this compound COc1ccccc1C(CC(=O)Nc1ccc(Cl)cc1)c1ccc(OC(C)C)cc1 (stereo not drawn)
1.17
